- PROTOCOL: physchem
- SETUP CONDITIONS: reversed phase HPLC column
PROPERTY: chromatographic logP
The answer should be a number; do not append a unit.

Request: # return recorded chromatographic logP for entry `Clc1ccc(Oc2ccc(C3(Cn4cncn4)OCCO3)c(Cl)n2)cc1`
Result: 2.86
